// data source = patent US11214803B2

- Tested on: Yap1 mRNA
- assay_method_text: Antisense inhibition of human Yap1 in SNU-449 cells by modified oligonucleotides, single dose (Example 5, RTS36584)
- Format: cell-based
- measurement_parameters: Table 48; Yap1 mRNA level relative to untreated control; modified oligonucleotides targeting SEQ ID NO.: 1 and 2
Strand notation (5' to 3'): a small letter for the sugar, then the base; units joined by * are phosphorothioate-linked, units joined directly phosphodiester-linked; [ ] holds rarer units or linkages, { } end groups; capitals alone tell only the bases. e = 2'-O-(2-methoxyethyl) (MOE); k = constrained ethyl (cEt); [5mC] = 5-methylcytosine; d = 2'-deoxy (DNA)
Below is a list of entries, each paired with its recorded YAP1 (% UT) value.
Report only the number, with the unit % UT understood.

A selection of reference data follows.
substance="1198288 (kG*kA*kA*dA*dT*dT*dG*dT*d[5mC]*dT*d[5mC]*dA*kT*eG*k[5mC]*e[5mC]; antisense) [Compound 1198288]" result_units="% UT" reading=10
substance="1197203 (antisense kA*kA*k[5mC]*dT*d[5mC]*dT*dT*dA*dT*dA*dT*dG*dG*kT*kT*kT) [Compound 1197203]" result_units="% UT" reading=68

So what's the measured YAP1 (% UT) for this one? 1198317 (kT*kT*kG*dG*dA*dA*dG*dA*dT*d[5mC]*dT*dG*kA*eA*kA*e[5mC]; antisense) [Compound 1198317]
74

Fill in: YAP1 (% UT) of 1198293 (kA*kG*kT*dA*dT*dG*dT*dG*dG*d[5mC]*dA*dA*kT*eA*kA*eT; antisense) [Compound 1198293] is ___
25

Recorded YAP1 (% UT) of 1198322 (kG*kT*kG*d[5mC]*dT*dT*dT*dG*dG*dA*dA*dG*kA*eT*k[5mC]*eT; antisense) [Compound 1198322] , please.
48
